B1: CPEB3 Ribozyme (parent)
chain: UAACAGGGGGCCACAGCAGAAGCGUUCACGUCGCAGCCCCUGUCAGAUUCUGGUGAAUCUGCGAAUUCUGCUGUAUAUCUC

Variants of: B1
MEASUREMENT PROTOCOL: self-cleavage, relative activity (ratio to wild type); higher = more cleavage; in vitro, sequencing
Assign a class from recorded self-cleavage; defined classes: label 0: < 0.3; label 1: ≥ 0.3 and < 0.5; label 2: ≥ 0.5

Completed entries (count: 2):
A18U U69A: label 2
U41A U49A: label 0

For the next question, use this variant.
Query block: Please classify: U72A A77U
Result block: label 2

Reference for the values: the RNAGym collection of RNA variant scans (doi:10.1093/nar/gkz1192)
